Measured values drawn from patent US12187696B2 for this set.

system: S. aureus NCTC 8325 persister cells; experiment: Persister cell assay II; format: cell-based; conditions: TSB, with or without 30 μg/mL oxacillin; 20 h or 70 h; 2.4 μM PK/X17-1-150 or PK/X17-4-011, 24 μM sorafenib or PK/X17-2-011, 5 μg/mL ciprofloxacin
measure name: viable persister cells (CFU/mL) vs DMSO control

> print(dat)
                                   compound  observed.value
1  O=C(Nc1ccccc1)Nc1ccc2c(c1)OC(F)(F)O2 [Reference Example 1]       no change
2  O=C(O)c1cn(C2CC2)c2cc(N3CCNCC3)c(F)cc2c1=O [ciprofloxacin, reference compound]       no change
3  CNC(=O)c1cc(Oc2ccc(NC(=O)Nc3ccccc3)cc2)ccn1 [Reference Example 5]       no change
